All values here come from PubChem BioAssay (NCI).

system: A498 renal; assay: NCI tumour cell line growth inhibition, 48 h
observation-type: TGI

Use the examples below as a reference point.
| molecule | TGI |
| --- | --- |
| COC(=O)c1c(C(=O)OC)c2ccccn2c1-c1cc(OC)c(Br)c(=O)o1 | > 100 µM |
| CCCCCOCC(O)CO (centres undefined) | > 100 µM |
| O=C(CCl)NCCNc1nccc(Nc2ccc(S(=O)(=O)Nc3ccccn3)cc2)n1 | 13.1 µM |

## Input Identify measured TGI associated with CC1(C)[C@@H]2C[C@H]1[C@@H](Cc1cccc(C[C@H]3c4cc(-c5ccccn5)ncc4[C@H]4C[C@@H]3C4(C)C)c1)c1cc(-c3ccccn3)ncc12
## Output > 93.2 µM
